- test protocol: HepG2 liver cancer cell viability effects, profiling panel, resazurin fluorescence, 24 h, PK04 Diversity Set (AID 1172); further: test concentration not given here
- condition info: higher = more signal
Hi, to clarify the labels: satisfied covers z-score from -0.1 upward, not satisfied covers anything below -0.1.

{"compound": "CCOC(=O)C1=C[C@@H](C(C)(C)C)N(S(=O)(=O)c2ccc(C)cc2)[C@H]1c1ccc(C)cc1", "class": "not satisfied"}
{"compound": "C=C[C@H](C)[C@H](OC(=O)Nc1ccc(OC)cc1)c1ccc(OCCO)cc1", "class": "not satisfied"}
{"compound": "COC(=O)c1c2oc(c1C(=O)OC)C(=O)N1CCC[C@H]1Cn1nncc1CN(Cc1ccccc1)C(=O)N[C@H](CO)CC2", "class": "satisfied"}
{"compound": "CC(=O)NCCCC[C@@H]1NC(=O)[C@@H]2C[C@H](C(=O)NCCCCCCN)[C@H](c3cccc(OCCO)c3)N2C1=O", "class": "not satisfied"}
{"compound": "CN1C(=O)[C@@]2(Cc3ccccc3)N=C(c3ccc(OCCCO)cc3)O[C@H]2c2ccccc21", "class": "not satisfied"}
{"compound": "COCCCNC(=O)[C@@]1(c2ccc([N+](=O)[O-])cc2)CC(=O)N(C(C)C)[C@@H]1c1ccc(CO)cc1", "class": "satisfied"}
{"compound": "C=C(/C(=C/C[C@@H](OC(C)=O)c1ccc(CO)o1)c1cc(C(=O)OC)ccc1OC)C(C)C", "class": "satisfied"}
{"compound": "COc1cccc(/C=C(\\C#N)C(=O)Nc2c(C)n(C)n(-c3ccccc3)c2=O)c1", "class": "satisfied"}
{"compound": "CC1(C)C(=O)C(c2ccccc2)=C2CN3C(=O)N(CCc4ccccc4)C(=O)C3(Cc3ccc(F)cc3)C=C21 (stereo not drawn)", "class": "not satisfied"}
{"compound": "C=C(C(=O)CC[C@@H](OC(=O)c1ccccc1-c1ccccc1C(=O)O)c1ccccc1OCCO)C(C)C", "class": "satisfied"}
{"compound": "O=c1cccc(-c2ccc(F)cc2)o1", "class": "satisfied"}
{"compound": "O=C1OCC=C[C@H]2OC34C=CCN(c5ccc6ccccc6c5)C(=O)[C@H]3N(CCCCCO)C(=O)[C@@H]4[C@@H]12 (stereo partly drawn)", "class": "not satisfied"}
{"compound": "C=C(COC)C(=O)CC[C@H](OC(C)=O)c1ccc(OCCO)cc1", "class": "not satisfied"}
{"compound": "CC(=O)N1CC(C(O)C2C=CC3C(=O)NC(=O)C3N2Nc2ccc(Cl)cc2Cl)c2ccccc21 (stereo not drawn)", "class": "not satisfied"}
{"compound": "C=CCC(OC(C)=O)[C@@H]1[C@@H](N(Cc2cccc3ccccc23)C(=O)c2cccc3ccccc23)c2cc(OCCCO)ccc2N1C(=O)c1ccc2ccccc2c1 (stereo partly drawn)", "class": "satisfied"}
{"compound": "CC=CC(O)C1C=CC2C(=O)NC(=O)C2N1Nc1ccccn1 (stereo not drawn)", "class": "not satisfied"}
{"compound": "O=c1cccc(-c2ccco2)o1", "class": "not satisfied"}
{"compound": "COc1ccc([Si](C)(C)[C@H]2[C@H](CC(=O)N3Cc4ccccc4C[C@H]3CO)O[C@@]3(C(=O)N(Cc4ccc(N5C(=O)c6cccc7cccc5c67)cc4)c4ccccc43)[C@@H]2C)cc1", "class": "satisfied"}
{"compound": "C=C[C@@H](OC)[C@H](OC(=O)Nc1ccc(OC)cc1)c1ccc(OC)c(O)c1", "class": "satisfied"}
{"compound": "CN(C)CCCC[C@@H]1NC(=O)[C@@H]2C[C@H](C(=O)O)[C@H](c3cccc(OCCO)c3)N2C1=O", "class": "satisfied"}
{"compound": "CCN(CC)c1ccc(N2CC=CC34O[C@@H]5/C=C\\CCC(C)OC(=O)C5[C@H]3C(=O)N(C(C)CO)[C@@H]4C2=O)cc1 (stereo partly drawn)", "class": "satisfied"}
{"compound": "COCCOC(=O)N1C(=O)[C@@]2(c3cc(C#CCNC(N)=O)ccc31)[C@H](c1ccc(O)cc1)N1[C@H](c3ccccc3)[C@H](c3ccccc3)OC(=O)[C@H]1[C@@H]2C(N)=O", "class": "satisfied"}
{"compound": "O=C1[C@@]23C=C(Br)[C@H](C[C@@H]2COC3)[C@@]12CO2", "class": "not satisfied"}
{"compound": "CCOC(=O)C[C@H]1[C@H](OC(=O)c2ccccc2-c2ccccc2)[C@@H](NC(=O)c2ccccc2)c2cc(OCCCO)ccc2N1C(=O)c1ccccc1", "class": "not satisfied"}
{"compound": "C[C@@]12COC[C@]13C=C(Br)[C@H](C2)[C@@]1(CO1)C3=O", "class": "satisfied"}
{"compound": "CCOC(=O)C1=CCN(S(=O)(=O)c2ccc(C)cc2)C1c1ccccc1 (stereo not drawn)", "class": "not satisfied"}
{"compound": "COCCOC(=O)N1C(=O)[C@@]2(c3cc(C#CCNC(N)=O)ccc31)[C@H](c1ccc(OCCO)cc1)N1[C@H](c3ccccc3)[C@H](c3ccccc3)OC(=O)[C@H]1[C@@H]2C(=O)NC[C@H](O)c1ccccc1", "class": "satisfied"}
{"compound": "C[C@]1(C(=O)O)c2ccccc2C(=O)N(Cc2ccc(OC(F)(F)F)cc2)[C@H]1c1ccc(CO)cc1", "class": "satisfied"}
{"compound": "CN1C(=O)C2C(C1=O)C1C=C(CCCO)C2C(C2CC2)N1Cc1cc2c(cc1Br)OCO2 (stereo not drawn)", "class": "not satisfied"}
{"compound": "CCCCCN1CC=CC23O[C@@H]4C=CCOC(=O)[C@@H]4[C@H]2C(=O)N(CCO)[C@@H]3C1=O (stereo partly drawn)", "class": "satisfied"}
{"compound": "COc1cc(NN2C(C(O)c3ccc(I)cc3)C=CC3C(=O)N(c4ccccc4)C(=O)C32)cc(OC)c1OC (stereo not drawn)", "class": "not satisfied"}
{"compound": "C=C(/C(=C/C[C@@H](OC(=O)c1ccncc1)c1cccc(OCCO)c1)c1cnc2ccccc2c1)C(C)C", "class": "not satisfied"}
{"compound": "O=C(NCC(O)CO)[C@@]1(CCS(=O)(=O)c2ccccc2)COC(c2ccc(OCCCO)cc2)=N1 (stereo partly drawn)", "class": "satisfied"}

* * *

composite z-score: recorded values
- System: Human papillomavirus type 1a protein E7 (residues 44-93)
- test protocol: HPV1a E7 fragment binders on microarrays, primary screen, biochemical, small-molecule microarray, residues 44-93, 635 nm fluorescence (AID 1108);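 further: E7 fragment applied at 1 µg/mL in TBST for 1 h at 4 C; score combines spot fluorescence with its signal to noise ratio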
- condition info: small-molecule microarray binding, fluorescence 635 nm; higher = more signal

{"compound": "CCOC(=O)C1=CCC(c2ccco2)N(S(=O)(=O)c2ccc(C)cc2)C1 (centres undefined)", "composite z-score": 1.36}
{"compound": "Cc1cccc([C@H]2C[C@H]3C(Br)=C[C@@H]2C(=O)[C@]32CO2)c1", "composite z-score": -0.97}
{"compound": "CC1(C)C(=O)C(c2ccccc2)=C2CN3C(=O)N(CCc4ccccc4)C(=O)C3(Cc3ccc(C(F)(F)F)cc3)C=C21 (centres undefined)", "composite z-score": 1.19}
{"compound": "CC(C)C(=C=CC[C@H](O)c1cccc(OCCO)c1)CCO", "composite z-score": 0.133}
{"compound": "COC(=O)[C@@]1(Cc2ccc(F)cc2)[C@H]2c3cc(C(=O)N(C)C)n(Cc4c(CO)[nH]cc(C)c4=O)c3C[C@H]2CN1C(=O)c1ccccc1", "composite z-score": -0.275}
{"compound": "COCC(=C=CC[C@@H](O)c1ccc(OCCO)cc1)CCO", "composite z-score": 0.862}
{"compound": "CC(=O)NCCCC[C@@H]1NC(=O)[C@H]2C[C@@H](C(=O)NCCCCCNC(=O)CS)[C@@H](c3cccc(OCCO)c3)N2C1=O", "composite z-score": 0.0676}
{"compound": "C[C@@]12COC[C@]13C=C(Br)[C@H](C2)[C@@]1(CO1)C3=O", "composite z-score": -2.3}
{"compound": "[N-]=[N+]=Nc1ccccc1C[C@@]1(C(=O)O)N=C(c2ccc(OCCCO)cc2)O[C@@H]1c1ccccc1N=[N+]=[N-]", "composite z-score": 1.26}

* * *

z-score: recorded values
- test protocol: E. coli acrAB mutant growth effects, primary screen, E. coli filamentation inducers, strain DRC39, OD650, 24 h (AID 1178);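 further: growth measured as culture turbidity by optical density at 650 nm; test concentration not given here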
- condition info: higher = more signal, called active from +8 up or from −8 down
Calls of active or inactive are those of the source.

{"molecule": "CO[C@H]1O[C@H](CO)[C@@H](OC(=O)Nc2ccc(C#N)cc2)[C@@H]2OC(=O)[C@H](Cc3cccc(Br)c3)C/C=C/C[C@@H](Cc3cccc(Br)c3)C(=O)O[C@@H]12", "z-score": "0.295 (inactive)"}
{"molecule": "COc1ccc(C#Cc2ccc3c(c2)[C@]2(C(=O)N3)[C@H](C(=O)Nc3nc4ccccc4s3)[C@H]3C(=O)O[C@H](c4ccccc4)[C@H](c4ccccc4)N3[C@@H]2c2ccccc2OCCO)cc1", "z-score": "0.82 (inactive)"}
{"molecule": "C=C(C(=O)CC[C@@H](OC(=O)c1ccccc1-c1ccccc1C(=O)O)c1ccccc1OCCO)C(C)C", "z-score": "0.475 (inactive)"}
{"molecule": "CCOC(=O)C1=C[C@@H](C(C)(C)C)N(S(=O)(=O)c2ccc(C)cc2)[C@H]1c1ccc(C)cc1", "z-score": "-0.617 (inactive)"}
{"molecule": "CCC(CC)C(O)C1C=CC2C(=O)N(c3ccccc3)C(=O)C2N1Nc1ccc([N+](=O)[O-])cc1 (stereo not drawn)", "z-score": "-0.667 (inactive)"}
{"molecule": "COCCCNC(=O)[C@@]1(Sc2ccc(C)cc2)CC(=O)N(C(C)C)[C@@H]1c1ccc(CO)cc1I", "z-score": "0.0841 (inactive)"}
{"molecule": "CN(C)CCCCNC(=O)[C@H]1C[C@H]2C(=O)N[C@@H](CCCC[N+](C)(C)C)C(=O)N2[C@H]1c1ccc(O)cc1", "z-score": "0.494 (inactive)"}
{"molecule": "C=CCC(OC(C)=O)[C@@H]1[C@@H](N(Cc2ccc(-c3ccccc3)cc2)C(=O)c2ccc(C)cc2)c2cc(OCCCO)ccc2N1C(=O)Cc1ccc2ccccc2c1 (stereo partly drawn)", "z-score": "1.64 (inactive)"}
{"molecule": "CO[C@H]1O[C@H](CO)[C@@H](OC(=O)CCc2ccccc2)[C@H](OC(=O)c2cc3ccccc3[nH]2)[C@H]1OC(=O)c1cc2ccccc2[nH]1", "z-score": "0.367 (inactive)"}
{"molecule": "COCCOC(=O)N1C(=O)[C@@]2(c3cc(C#CCNC(N)=O)ccc31)[C@H](c1ccc(OCCO)cc1)N1[C@H](c3ccccc3)[C@H](c3ccccc3)OC(=O)[C@H]1[C@@H]2C(N)=O", "z-score": "0.146 (inactive)"}
{"molecule": "[N-]=[N+]=NC[C@H](Cc1ccccc1)NC(=O)c1ccccc1", "z-score": "0.487 (inactive)"}
{"molecule": "[N-]=[N+]=Nc1ccccc1C[C@@]1(C(=O)O)N=C(c2ccc(OCCCO)cc2)O[C@@H]1c1ccccc1N=[N+]=[N-]", "z-score": "-0.258 (inactive)"}
{"molecule": "O=C1N[C@@H](Cc2ccccc2)C(=O)N2[C@@H]1C[C@@H](C(=O)O)[C@H]2c1ccc(O)cc1", "z-score": "-0.143 (inactive)"}
{"molecule": "COCCOC(=O)N1C(=O)[C@@]2(c3ccccc31)[C@H](c1ccccc1OCCO)N1[C@H](c3ccccc3)[C@H](c3ccccc3)OC(=O)[C@H]1[C@@H]2C(N)=O", "z-score": "0.322 (inactive)"}
{"molecule": "COc1cc(CO)cc(I)c1O[C@H]1C=C(C(=O)NCCO)C[C@@H](NCC2CCCCC2)[C@@H]1O", "z-score": "1.45 (inactive)"}
{"molecule": "CCCNC(=O)[C@@]1(Sc2ccc(C)cc2)CC(=O)N(C2CCCCC2)[C@@H]1c1ccc(CO)cc1I", "z-score": "0.29 (inactive)"}
{"molecule": "O=C(CS)NCCCCCNC(=O)[C@@H]1C[C@@H]2C(=O)N[C@@H](Cc3ccccc3)C(=O)N2[C@@H]1c1cccc(OCCO)c1", "z-score": "0.403 (inactive)"}
{"molecule": "CCCC=C(CCC)[C@@H](NC(=O)CCc1ccccc1)c1ccc(C(F)(F)F)cc1", "z-score": "0.0152 (inactive)"}
{"molecule": "C=CCC(OC(C)=O)[C@@H]1[C@@H](N(Cc2ccc(-c3cccc(C(F)(F)F)c3)o2)C(=O)Cc2ccc(OC)cc2)c2cc(OCCCO)ccc2N1C(=O)Cc1ccc2ccccc2c1 (stereo partly drawn)", "z-score": "0.532 (inactive)"}
{"molecule": "O=C1C[C@@](C(=O)NCC(F)(F)F)(c2ccc([N+](=O)[O-])cc2)[C@@H](c2ccc(CO)cc2)N1CC12CC3CC(CC(C3)C1)C2", "z-score": "-0.229 (inactive)"}
{"molecule": "O=C1N(CCS(=O)(=O)c2ccccc2)Cc2ccccc2[C@@H]2OC(c3ccc(OCCCO)cc3)=N[C@]12CCS(=O)(=O)c1ccccc1", "z-score": "0.958 (inactive)"}
{"molecule": "COCC(=C=CC[C@@H](O)c1ccc(OCCO)cc1)CCO", "z-score": "1.41 (inactive)"}
{"molecule": "C=C(COC)/C(=C/C[C@@H](OC(=O)c1ccncc1)c1ccccc1OCCO)c1cc(C(=O)OC)ccc1OC", "z-score": "0.404 (inactive)"}
